# Procedure text: chemical genetic growth profiling, strain panel (AID 1159580);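 also: tested at 20 µM; growth read once vehicle control cultures reached saturation at 30 °C; lower values mean less growth of the strain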
# Experimental context: S. cerevisiae deletion strains, growth OD, locus YDL101C, strain DUN1
Hit rate of the full screen: of about 5,500 compounds, about 2,000 (36%) were called active. Another 18% or so got no clear call; they are omitted. Rule as the data show it: active = normalized growth mostly below about 0.91 (no sharp cut-off); inconclusive = no clear call, values can overlap the other calls; inactive = mostly above about 0.92. This is one part of the list.
Tick one outcome: yes for active, no for inactive

Take a look at these entries with their results.
- CC(C)c1ccc2c(c1)CCC1[C@](C)(CN)CCC[C@]21C (stereo partly drawn): yes
- COc1c(C)c2c(c(C)c1Cl)Oc1c(Cl)c(OC)c(Cl)c(C)c1C(=O)O2: no
- COC(=O)c1ccc(S(=O)(=O)N2CCC(C(N)=O)CC2)n1C: no
- OCc1ccccc1-c1ccccc1: no
- CC(=O)c1cc(CC=C(C)C)c(O)c(CC=C(C)C)c1: no

What classification did Cn1ncc(C(=O)O/N=C(/N)c2cc(C(F)(F)F)cc(C(F)(F)F)c2)c1-n1cccc1 end up with in this test? no

What classification did CC(=O)O[C@@H]1CC2C(C)(C)[C@H](O)C=C[C@]2(C)C2CC[C@]3(C)C(=CC(=O)O[C@H]3c3ccoc3)[C@@]21C (stereo partly drawn) end up with in this test? no

What classification did CCCc1c(OCCCCc2nn[nH]n2)ccc(C(C)=O)c1O end up with in this test? no

What classification did O=C1c2ccccc2C(=O)N1CN(CCSc1ccccc1)CN1C(=O)c2ccccc2C1=O end up with in this test? no

What classification did CC(=O)O[C@H]1CC[C@@]2(C)C(C[C@@H](OC(C)=O)[C@@]3(C)C4=CC(=O)O[C@@H](c5ccoc5)[C@]4(C)CCC23)C1(C)C (stereo partly drawn) end up with in this test? no

What classification did CC(=O)Nc1ccc(S(=O)(=O)Nc2c(C)n(C)n(-c3ccccc3)c2=O)cc1 end up with in this test? no

What classification did COC(=O)C/C(N)=C(\C#N)C(=O)OC end up with in this test? no

What classification did COC(=O)c1c(OC)cc2c(c1C)Oc1c(Cl)c(O)c(Cl)c(C)c1C(=O)O2 end up with in this test? no

The reported numbers originate from PubChem BioAssay AID1159580.
